- target.or.system: bFGF (UniProt P09038 P09038:143-288)
- Sequence (P09038 143-288, one chain of several): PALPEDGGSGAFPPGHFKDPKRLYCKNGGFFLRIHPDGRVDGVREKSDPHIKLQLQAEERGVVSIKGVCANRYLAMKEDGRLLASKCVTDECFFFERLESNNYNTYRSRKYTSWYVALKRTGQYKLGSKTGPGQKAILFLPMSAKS
- procedure.summary: filter; specificity
- assay.context: label: 32P
Reported pKd is given for each of the following binders.
On this scale, pKd is minus log10 of a concentration expressed in M (mol/L).

GGAAGCUUGAUGGGUGACACACGUCAUGCCGAGCU (ssRNA) [ligand 44t] | 6.22

Using the record for GGCCGGUAGUCGCAUGGCCCAUCGCGCCCGG (ssRNA) [ligand 100t] , state its measured pKd.
6.00
